- target of assay: UniProt:C7C422
- experimental details: biochemical
- Type: biochemical
- experimental setup: NDM-1 IC50, fluorescence assay, CCF2-FA substrate, 1 pM enzyme, 2 hours at 25° C.
experimental readout: pIC50
Worth noting: pIC50 values are minus log10 of concentrations stated in mol/L.

| compound | pIC50 |
| --- | --- |
| Nc1nc2c(-c3ccc(S(=O)(=O)N4CCC[C@@H](N)C4)c(S(N)(=O)=O)c3-c3nnn[nH]3)cccc2s1 | 9.00 |

// next entry
Q) What value of pIC50 has been recorded for this entry: Nc1nc2c(-c3ccc(S(=O)(=O)NCCC(N)C(F)F)c(S(N)(=O)=O)c3-c3nnn[nH]3)cccc2s1.O=CO (centres unmarked) [Example 124, formate]
A) 11.19

###

- target of assay: NDM-1 (Klebsiella pneumoniae, UniProt C7C422)
- Sequence (C7C422 whole entry, looked up, species assumed): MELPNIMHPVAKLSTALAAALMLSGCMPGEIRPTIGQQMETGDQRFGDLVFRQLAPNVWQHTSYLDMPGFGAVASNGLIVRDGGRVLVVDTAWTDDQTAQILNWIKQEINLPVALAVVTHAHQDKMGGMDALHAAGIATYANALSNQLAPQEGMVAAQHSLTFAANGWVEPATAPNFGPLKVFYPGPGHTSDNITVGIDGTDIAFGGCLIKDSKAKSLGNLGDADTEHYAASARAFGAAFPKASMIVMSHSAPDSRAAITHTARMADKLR
- experimental details: biochemical
- Type: biochemical
- experimental setup: fluorescence assay, CCF2-FA substrate, 1 pM enzyme, 2 hours at 25° C.; read-out: NDM-1 IC50
Cut-off 0.1 nM on IC50: below means label 1, at or above means label 0.

The following compounds have reported results that may help.
| compound | assigned class |
| --- | --- |
| Nc1nc2c(-c3ccc(S(=O)(=O)N[C@@H]4CN[C@@H](CO)C4)c(S(N)(=O)=O)c3-c3nnn[nH]3)cccc2[nH]1 | label 0 |
| C[C@H](CN)NS(=O)(=O)c1ccc(-c2cncc(N)c2)c(-c2nn[nH]n2)c1S(N)(=O)=O | label 0 |
| Nc1nc2c(-c3ccc(S(=O)(=O)NC4CCNCC4)c(S(N)(=O)=O)c3-c3nnn[nH]3)cccc2s1 | label 1 |

Q) Say whether its IC50 is strictly beneath 0.1 nM. Entry: Nc1nc2c(-c3ccc(S(=O)(=O)NC[C@]4(F)CCCNC4)c(S(N)(=O)=O)c3-c3nnn[nH]3)cccc2s1.O=CO [Example 122, formate]
A) label 1

Q) Would you kindly verify if IC50 of Nc1nc2c(-c3ccc(S(=O)(=O)N4CCC(N)(CO)C4)c(S(N)(=O)=O)c3-c3nnn[nH]3)cccc2s1 (stereo not shown) is strictly less than 0.1 nM?
A) label 0

###

- Test system: Serratia marcescens expressing IMP-1 (CL5741)
- Type: cell-based
- experimental setup: IMP-1 strain CL5741, with imipenem 1 μg/ml, 95% inhibition of growth
experimental readout: Serratia marcescens MITC95 (µM)
State just the number; it will be interpreted in µM.

| smiles code | endpoint value |
| --- | --- |
| NCCNS(=O)(=O)c1ccc(-c2ccc3sc(CN)nc3c2)c(-c2nn[nH]n2)c1S(N)(=O)=O | 0.7813 |
| NCC(CO)(CO)NS(=O)(=O)c1ccc(-c2cccc3[nH]c(N)nc23)c(-c2nn[nH]n2)c1S(N)(=O)=O | 1.563 |
| C[C@H](N)CNS(=O)(=O)c1ccc(-c2ccc(N)nc2)c(-c2nn[nH]n2)c1S(N)(=O)=O | 0.7813 |
| NCCNS(=O)(=O)c1ccc(-c2cccnc2N)c(-c2nn[nH]n2)c1S(N)(=O)=O | 0.3906 |
| NCCNc1cc(-c2ccc(S(=O)(=O)N[C@@H]3CCNC3)c(S(N)(=O)=O)c2-c2nn[nH]n2)ccn1 | 1.563 |

Q) What value of measured Serratia marcescens MITC95 is listed for NCC(CN)NS(=O)(=O)c1ccc(-c2cccc3[nH]c(N)nc23)c(-c2nn[nH]n2)c1S(N)(=O)=O ?
A) 1.563

Q) Which Serratia marcescens MITC95 is reported for this compound? NCCNc1cc(-c2ccc(S(=O)(=O)NCCN)c(S(N)(=O)=O)c2-c2nn[nH]n2)ccn1
A) 0.7813
